SUBJECT_OF_TEST: H1047R PIK3CA enzyme (Homo sapiens, UniProt P42336, H1047R)
Sequence (P42336 whole entry H1047R): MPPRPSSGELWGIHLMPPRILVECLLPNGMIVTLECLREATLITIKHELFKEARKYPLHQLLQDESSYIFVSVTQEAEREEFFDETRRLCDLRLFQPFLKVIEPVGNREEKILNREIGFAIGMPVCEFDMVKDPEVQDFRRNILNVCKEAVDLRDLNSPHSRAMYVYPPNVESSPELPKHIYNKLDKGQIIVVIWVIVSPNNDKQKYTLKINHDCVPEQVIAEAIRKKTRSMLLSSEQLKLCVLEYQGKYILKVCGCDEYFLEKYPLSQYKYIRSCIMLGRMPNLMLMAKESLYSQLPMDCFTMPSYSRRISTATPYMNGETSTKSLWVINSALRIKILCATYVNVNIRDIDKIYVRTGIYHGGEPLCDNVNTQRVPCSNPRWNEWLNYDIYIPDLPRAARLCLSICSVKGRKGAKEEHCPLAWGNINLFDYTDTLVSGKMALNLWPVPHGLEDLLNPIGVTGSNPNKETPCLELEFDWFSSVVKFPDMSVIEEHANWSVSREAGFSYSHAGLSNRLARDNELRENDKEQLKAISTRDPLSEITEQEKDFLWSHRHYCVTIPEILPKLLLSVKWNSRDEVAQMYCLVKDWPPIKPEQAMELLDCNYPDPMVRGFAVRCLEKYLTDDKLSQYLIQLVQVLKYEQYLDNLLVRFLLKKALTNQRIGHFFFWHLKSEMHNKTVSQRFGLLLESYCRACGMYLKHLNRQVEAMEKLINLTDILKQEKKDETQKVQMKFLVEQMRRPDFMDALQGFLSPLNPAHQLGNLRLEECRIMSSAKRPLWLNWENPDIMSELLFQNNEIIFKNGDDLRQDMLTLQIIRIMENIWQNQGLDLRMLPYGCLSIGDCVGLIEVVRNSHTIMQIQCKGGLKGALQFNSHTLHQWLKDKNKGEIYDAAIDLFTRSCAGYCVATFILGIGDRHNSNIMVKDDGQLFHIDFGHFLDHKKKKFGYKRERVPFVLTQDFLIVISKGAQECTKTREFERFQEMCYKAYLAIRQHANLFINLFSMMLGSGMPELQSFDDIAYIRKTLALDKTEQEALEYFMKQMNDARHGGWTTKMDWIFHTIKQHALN
Sequence (P27986 whole entry partner): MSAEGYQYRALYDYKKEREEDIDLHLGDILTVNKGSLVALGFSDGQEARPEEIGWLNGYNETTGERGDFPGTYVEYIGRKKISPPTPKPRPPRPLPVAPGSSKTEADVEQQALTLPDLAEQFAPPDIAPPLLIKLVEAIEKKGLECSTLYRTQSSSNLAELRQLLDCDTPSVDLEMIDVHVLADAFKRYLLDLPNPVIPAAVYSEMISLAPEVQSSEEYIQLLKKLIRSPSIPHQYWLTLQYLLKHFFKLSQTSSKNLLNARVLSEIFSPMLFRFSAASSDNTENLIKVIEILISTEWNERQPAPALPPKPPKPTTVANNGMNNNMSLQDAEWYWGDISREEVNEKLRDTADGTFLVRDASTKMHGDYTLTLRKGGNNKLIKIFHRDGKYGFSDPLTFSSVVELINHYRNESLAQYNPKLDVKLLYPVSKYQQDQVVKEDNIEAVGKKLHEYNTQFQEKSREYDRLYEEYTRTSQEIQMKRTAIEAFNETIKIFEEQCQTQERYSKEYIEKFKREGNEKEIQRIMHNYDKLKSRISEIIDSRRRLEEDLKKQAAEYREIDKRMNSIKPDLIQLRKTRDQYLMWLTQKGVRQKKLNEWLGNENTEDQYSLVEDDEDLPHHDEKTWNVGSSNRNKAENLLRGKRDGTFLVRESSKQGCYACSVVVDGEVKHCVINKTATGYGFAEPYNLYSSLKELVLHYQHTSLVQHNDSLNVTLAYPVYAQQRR
EXPERIMENTAL_PROTOCOL: ADP-Glo Biochemical PIK3CA Kinase Assay
METRIC_NAME: IC50

Ask: Consider the compound NC(=O)CCN(C(=O)c1cc(F)cc(C(F)(F)F)c1)c1cc(O)cc2c1C(c1cc(F)ccc1Cl)NC2=O (stereo not shown) and give its measured IC50.
Result: 10 to 100 µM

Ask: O=C(Nc1cc(-c2cnc3nccn3c2)cc2c1C(c1cc(F)ccc1Cl)NC2=O)c1cc(F)cc(C(F)(F)F)c1 (stereo not shown) ?
Result: ≤ 0.1 µM

Ask: Record: Cc1ccccc1C1NC(=O)c2cccc(Nc3cc4ccccc4nn3)c21 (stereo not shown)
Result: 10 to 100 µM

Ask: Moving on to N#CCn1ccnc1-c1cc(NC(=O)c2cc(F)cc(C(F)(F)F)c2)c2c(c1)C(=O)NC2c1cc(F)ccc1Cl (stereo not shown)
Result: 0.1 to 0.5 µM

Ask: Also need `O=C(Nc1cccc2c1[C@H](CC1CCCCC1)NC2=O)c1cc(F)cc(C(F)(F)F)c1` , thanks.
Result: 0.5 to 1 µM

Ask: Next up: O=C1N[C@H](c2cc(F)ccc2Cl)c2c(NC(=O)N3C[C@](O)(C(F)(F)F)c4cc(F)ccc43)cc(N3CCOC3=O)cc21 (single isomer, unassigned)
Result: 1 to 10 µM

Ask: How about O=C(Nc1cccc2c1[C@@H](C[C@@H]1CCCCN1)NC2=O)c1cc(F)cc(C(F)(F)F)c1 (single isomer, unassigned) ?
Result: 10 to 100 µM
